For each record, write down the corresponding GI50.
System: COLO 205 colon
PROCEDURE_SUMMARY: NCI tumour cell line growth inhibition, 48 h

As a guide, the following entries are already answered.
Cc1cc2c(c3oc(C(O)(CO)C4CO4)cc(=O)c13)C(=O)c1c(O)cccc1C2=O (stereo unspecified)
0.1 nM
Cc1cc(S(=O)(=O)Nc2nc3ccsc3c(=O)n2Cc2ccco2)c(S)cc1Cl
> 100000 nM
COc1c2ccccc2c(O)c2c(=O)c(C(=O)O)cn(C)c12
> 100000 nM

Answer for every listed entry: what is its GI50? The entries follow.
1. COC(=O)[C@]12CC[C@@H](C)[C@H](C)[C@@H]1C1=CC[C@@H]3[C@@]4(C)C(C=O)=C[C@@](C)(COC(C)=O)[C@@H]4[C@H](O)C[C@@]3(C)[C@]1(C)CC2
2. C/C=C(\C)C(=O)O[C@@H]1C(O)[C@H]2OC(COC(=O)CCC(=O)CCCCCC[C@H](CCCCC)O[C@@H]3OC(C)[C@H](OC(C)=O)C(O)[C@H]3O2)[C@H]1OC(=O)/C=C/c1ccccc1 (stereo partly specified)
3. Nc1nc2c(c3ncccc13)C(c1cccc(Cl)c1)Cc1ncccc1-2 (stereo unspecified)
4. C=C(CNCCc1ccc(O)cc1)[C@@H]1CC[C@]2(CO)CC[C@]3(C)[C@H](CC[C@@H]4[C@@]5(C)CCC(=O)C(C)(C)[C@@H]5CC[C@]43C)[C@@H]12
5. Cn1ccc(=Nc2ccc(NC(=O)c3ccc(N=c4ccn(C)c5ccc([N+](=O)[O-])cc45)cc3)cc2)cc1
6. COc1ccc(/C=C(/C(=O)N2CCCC2)c2cc(OC)c(OC)c(OC)c2)cc1N
7. C=C(CN1CCN(c2cccc(C(F)(F)F)c2)CC1)c1ccc(C(=O)Nc2ccccc2N)cc1
8. C#CCN1CCN(C(=S)N/N=C(\C)c2ccccn2)CC1

-- reply
1: 2140 nM; 2: < 10 nM; 3: 1530 nM; 4: 1730 nM; 5: 3940 nM; 6: 3060 nM; 7: 3450 nM; 8: 3.62 nM
